B1: CPEB3 Ribozyme (parent)
chain: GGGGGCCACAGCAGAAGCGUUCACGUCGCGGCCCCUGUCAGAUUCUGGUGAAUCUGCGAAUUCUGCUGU

# Variants of: B1
# experimental.protocol: self-cleavage, relative activity (ratio to wild type); higher = more cleavage; co-transcriptional
Parameter threshold = 0.5. Response is y when self-cleavage meets or exceeds it, else n.

- G2C A16G: n
- C18A G28C: n
- A15C: y
- G19C C22G: n
- G11A G14C: n
- C18U U61A: n
- G56A C63U: y
- C6U G19C: n
- A42U G56U: y
- C18A C32A: n
- G5A A42G: y
- U21C U49A: y
- C32A C54U: y
- C24U C63G: n
- G3U C12A: n
- U38G A52C: n
